Dear all, I have gathered published pKi values for Angiotensin-converting enzyme (Rattus norvegicus); the list follows.
Molecular target: Angiotensin-converting enzyme (Rattus norvegicus)
Sequence (P47820 whole entry): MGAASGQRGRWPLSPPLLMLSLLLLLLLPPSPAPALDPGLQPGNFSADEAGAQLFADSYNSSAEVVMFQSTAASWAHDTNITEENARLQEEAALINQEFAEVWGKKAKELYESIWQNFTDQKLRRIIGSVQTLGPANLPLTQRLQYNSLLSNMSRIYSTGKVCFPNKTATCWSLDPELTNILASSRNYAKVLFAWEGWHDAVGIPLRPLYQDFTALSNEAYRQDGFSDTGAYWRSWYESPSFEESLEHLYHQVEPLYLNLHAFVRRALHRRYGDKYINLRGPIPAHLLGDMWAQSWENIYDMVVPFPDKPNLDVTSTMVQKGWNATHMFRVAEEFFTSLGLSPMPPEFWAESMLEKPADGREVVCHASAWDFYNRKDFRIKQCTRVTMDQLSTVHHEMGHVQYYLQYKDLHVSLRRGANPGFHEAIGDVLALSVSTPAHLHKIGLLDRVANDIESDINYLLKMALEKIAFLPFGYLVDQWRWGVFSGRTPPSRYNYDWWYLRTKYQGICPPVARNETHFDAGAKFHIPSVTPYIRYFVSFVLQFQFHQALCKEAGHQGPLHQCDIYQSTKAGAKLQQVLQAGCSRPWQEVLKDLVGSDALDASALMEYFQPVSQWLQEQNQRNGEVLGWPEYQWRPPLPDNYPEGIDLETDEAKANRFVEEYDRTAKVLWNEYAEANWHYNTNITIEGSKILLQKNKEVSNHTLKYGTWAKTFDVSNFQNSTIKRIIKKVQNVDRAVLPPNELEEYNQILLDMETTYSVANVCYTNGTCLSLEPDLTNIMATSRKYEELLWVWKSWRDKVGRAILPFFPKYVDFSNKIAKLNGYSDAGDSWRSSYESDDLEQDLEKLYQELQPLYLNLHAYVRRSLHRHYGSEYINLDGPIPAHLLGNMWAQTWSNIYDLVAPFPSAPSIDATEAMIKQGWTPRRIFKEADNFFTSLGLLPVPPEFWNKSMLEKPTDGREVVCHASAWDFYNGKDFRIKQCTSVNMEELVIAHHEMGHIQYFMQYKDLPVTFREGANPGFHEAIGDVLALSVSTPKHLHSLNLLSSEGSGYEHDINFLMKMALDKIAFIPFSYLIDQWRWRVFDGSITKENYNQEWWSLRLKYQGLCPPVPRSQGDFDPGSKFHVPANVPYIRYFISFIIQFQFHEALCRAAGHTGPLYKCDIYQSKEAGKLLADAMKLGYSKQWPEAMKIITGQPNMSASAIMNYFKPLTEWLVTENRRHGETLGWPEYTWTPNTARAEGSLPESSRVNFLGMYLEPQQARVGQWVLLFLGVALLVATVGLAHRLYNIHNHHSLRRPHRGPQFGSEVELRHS
Numbers only, as −log10 of the molar value.

N[C@H](CCS(=O)(=O)O)[C@@H](S)C(=O)N[C@@H](Cc1ccc(O)cc1)C(=O)N[C@@H](CC(=O)O)C(=O)O	5.74
CC[C@@H](C)[C@H](NC(=O)[C@H](S)[C@H](N)CCC(=O)O)C(=O)N[C@@H](CC(=O)O)C(=O)O	5.74
CC[C@@H](C)[C@H](NC(=O)[C@H](S)[C@H](N)CCS(=O)(=O)O)C(=O)N1CCC(C(=O)O)[C@H]1C(=O)O (stereo not given in full)	6.59
CCOc1ccc2c(c1)CCC2C(CS)C(=O)NC(Cc1c[nH]c2ccccc12)C(=O)O (stereo not given)	7.74
O=C(O)[C@H](Cc1c[nH]c2ccccc12)NC(=O)[C@@H](CS)[C@H]1CCc2cc(Br)ccc21	8.39
O=C(O)C(Cc1c[nH]c2ccccc12)NC(=O)C(CS)C1CCc2cc(O)ccc21 (stereo not given)	8.15

Here are 7 compounds. What values of pKi were reported for them?
1. CC[C@@H](C)[C@H](NC(=O)[C@H](S)[C@H](N)CCS(=O)(=O)O)C(=O)N[C@@H](CC(=O)O)C(=O)O
2. COc1cc2c(cc1OC)C(C(CS)C(=O)NC(Cc1c[nH]c3ccccc13)C(=O)O)CC2 (stereo not given)
3. CSc1ccc2c(c1)CCC2C(CS)C(=O)NC(Cc1c[nH]c2ccccc12)C(=O)O (stereo not given)
4. CC[C@@H](C)[C@H](NC(=O)[C@H](S)[C@H](N)CCP(=O)(O)O)C(=O)N[C@@H](CC(=O)O)C(=O)O
5. O=C(O)CNC(=O)/C(=C\c1ccccc1)CS
6. O=C(O)C(Cc1c[nH]c2ccccc12)NC(=O)C(CS)C1CCc2cc(Br)ccc21 (stereo not given)
7. O=C(O)C(Cc1c[nH]c2ccccc12)NC(=O)C(CS)C1CCc2cc(-c3ccccc3)ccc21 (stereo not given)

Ans.
1: 5.92; 2: 7.11; 3: 7.85; 4: 5.66; 5: 6.42; 6: 7.92; 7: 7.57

Here are 2 compounds. What values of pKi were reported for them?
1. CC[C@@H](C)[C@H](NC(=O)[C@H](S)[C@H](N)CCS(=O)(=O)O)C(=O)N1CCC(C(=O)O)[C@@H]1C(=O)O (stereo not given in full)
2. CC[C@@H](C)[C@H](NC(=O)[C@H](S)[C@H](N)CCS(=O)(=O)O)C(=O)N[C@@H](CS(=O)(=O)O)C(=O)O

Ans.
1. 5.96
2. 5.92
